Assay text: NCI Yeast Anticancer Drug Screen. Data for the mlh1 rad18 strain (AID 175)
Condition context: S. cerevisiae mlh1 rad18 strain growth inhibition; at 50.0 µM; active compounds read high
Compounds without any hit were thinned out: in the full panel of roughly 79,000, 15% have a hit. The source made the active and inactive calls. Cut-off read from the data, not from the text of the source: active = growth inhibition above about 70%; inactive = the rest.
Measure: growth inhibition

Some molecules with recorded growth inhibition:
| Molecule | growth inhibition |
| --- | --- |
| NNc1cc(=O)[nH]c(N)n1 | -29.9% (inactive) |
| COc1ccc(-c2nc(-c3cc4c(ccc5ccccc54)oc3=O)cs2)cc1 | -41.5% (inactive) |
| C=C[C@@]1(C)CC(=O)[C@]2(O)[C@@]3(C)[C@@H](O)CCC(C)(C)[C@@H]3[C@H](O)[C@@H](OC(C)=O)[C@@]2(C)O1 | -68% (inactive) |

Query (molecule): CC=NC(C)(C)C ; field requested: growth inhibition
-18.9% (inactive)

What do you get for CC(C)c1ccc(OC(=N)c2ccccc2)cc1 ?
3.6% (inactive)

What do you get for C=C1CCCCCCCCCCC1S(=O)c1ccccc1 (centres undefined) ?
31.5% (inactive)

What do you get for C=C(C)c1nc(C#N)c(N)o1 ?
-33.4% (inactive)

What do you get for O=C1CCCC1C(=O)c1ccccc1.O=C1CCCC1C(=O)c1ccccc1.[Cu] (centres undefined) ?
52.9% (inactive)

What do you get for c1ccc2c(c1)CCC2 ?
-6.6% (inactive)

* * *

Assay text: NCI Yeast Anticancer Drug Screen. Data for the mec2-1 strain (AID 157)
Condition context: S. cerevisiae mec2-1 strain, at 50.0 µM, active compounds read high
The panel holds about 79,000 compounds, 15% with a hit somewhere; the sample as a whole holds those more often.
// values below are reported growth inhibition
Just the number in %, nothing appended.

| Compound | growth inhibition (%) |
| --- | --- |
| COc1cc2ccc3c[n+](C)ccc3c2cc1OC | -30.9 |
| CCN(CC)S(=O)(=O)c1ccc(N)cc1 | 2.15 |
| Cn1c(=O)c2cc(O)cnc2n(C)c1=O | -5.8 |
| Cc1nc2ccccc2nc1N1CCCC1 | -29.1 |
| Cc1ccc(N=C2N=C(N3CC(C)OC(C)C3)c3ccccc32)cc1 (stereo unspecified) | -22.9 |

Let us examine a further case.
Query (compound): O=C(O)c1c(Cl)c(Cl)c(Cl)c(Cl)c1C(=O)Nc1ccccc1F ; field requested: growth inhibition
-19.2

* * *

Assay text: NCI Yeast Anticancer Drug Screen. Data for the bub3 strain (AID 167)
Condition context: S. cerevisiae bub3 mutant strain, at 50.0 µM, active compounds read high
This is part of a sample that, as a whole, favours compounds with a hit. Of some 79,000 tested, about 15% had one in any assay.
Measure: growth inhibition (%)
Just the number in %, nothing appended.

Some molecules with recorded growth inhibition:
| Molecule | Unit label | growth inhibition |
| --- | --- | --- |
| Cc1ccc2c(c1)[nH]c(=S)n2/C=C(\c1ccccc1)S(=O)Cc1ccccc1 (centres undefined) | % | -28.1 |
| CCC(=O)Nc1ccc(F)cc1 | % | -10.9 |
| COc1ccc2cc1Oc1ccc(cc1)CC1c3cc(c(OC)cc3CCN1C)Oc1c3c(cc4c1C(C2)N(C)CC4)OCO3 (centres undefined) | % | 1.1 |

Let us examine a further case.
Query (molecule): Cc1c(C(=O)O)c2cc3ccccc3cc2c(=O)n1C ; field requested: growth inhibition
-23.9

* * *

Assay text: NCI Yeast Anticancer Drug Screen. Data for the rad50 strain (AID 155);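 note: 0% = growth of vehicle-only cultures of the same strain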
Condition context: S. cerevisiae rad50 strain growth inhibition; at 50.0 µM
Compounds without any hit were thinned out: in the full panel of roughly 79,000, 15% have a hit. Calls of active or inactive are those of the source. No stated cut-off is given here; in the data, active means growth inhibition above about 70%; inactive means the rest.
Form entry, call: pick from active, inactive

// known answers, use as guide
| Compound | Assigned class |
| --- | --- |
| COc1cccc(-n2cnc3c(=O)[nH]cnc32)c1 | inactive |
| COc1ccc(C[C@@H]2Cc3cc(OC)c(OC)cc3CN2C)cc1 | inactive |
| O=C1CC(=O)C(C(=O)c2ccccc2)N1 (stereo not given) | inactive |
| CC(NC(=O)C(CSCc1ccccc1)NC(=O)OCc1ccccc1)C(=O)OCc1ccccc1 (stereo not given) | inactive |
| CC(C)(C)NC(=O)NC(C)(C)C | inactive |

Query: recorded result category for O=C1OC(C(=O)O)Cc2ccccc21 (stereo not given) in this test
inactive

What do you get for Cc1ccc(C)c(NC(=O)c2ccc([N+](=O)[O-])cc2)c1 ?
inactive

What do you get for c1cc2c3c(cccc3c1)-c1nc3c(ccc4ccccc43)nc1-2 ?
inactive

What do you get for CCOC(=O)N1CCN(C(=S)N/N=C(\C)c2cnccn2)CC1 ?
active

What do you get for CCOC(CN(C)C(=S)Nc1cccc2ccccc12)OCC ?
inactive

* * *

Assay text: NCI Yeast Anticancer Drug Screen. Data for the mlh1 rad18 strain (AID 175)
Condition context: S. cerevisiae mlh1 rad18 strain growth inhibition; at 50.0 µM; active compounds read high
This is part of a sample that, as a whole, favours compounds with a hit. Of some 79,000 tested, about 15% had one in any assay.
Measure: growth inhibition (%)
Just the number in %, nothing appended.

Query (compound): COc1cccc2cc(C(C)=O)c(=O)oc12 ; field requested: growth inhibition
2.85

What do you get for CC(C)N(C(=O)C12C3C4C1C1C2C3C41C(=O)C(C)(C)C)C(C)C (stereo unspecified) ?
50.8

What do you get for CCOC(=O)C1CN(C)C(=O)C1=O (stereo unspecified) ?
25.9

What do you get for COc1ccc(-c2oc3cc(OC)c(OC)c(O)c3c(=O)c2OC)cc1 ?
-56.5

What do you get for Cc1ccccc1S(=O)(=O)NSc1ccccc1[N+](=O)[O-] ?
25.7

What do you get for O=C1CCCc2c1cc1c3c(cccc23)CC1 ?
-1.85

* * *

Assay text: NCI Yeast Anticancer Drug Screen. Data for the rad50 strain (AID 155);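 note: 0% = growth of vehicle-only cultures of the same strain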
Condition context: S. cerevisiae rad50 strain growth inhibition; at 50.0 µM
This is part of a sample that, as a whole, favours compounds with a hit. Of some 79,000 tested, about 15% had one in any assay. The source made the active and inactive calls. Rule as the data show it: active = growth inhibition above about 70%; inactive = the rest.
Form entry, call: pick from label 1 = active, label 0 = inactive

// known answers, use as guide
| Compound | Assigned class |
| --- | --- |
| CCCNN(CCC)C(N)=O | label 0 |
| CCOC(=O)C[P+](c1ccc(OC)cc1)(c1ccc(OC)cc1)c1ccc(OC)cc1 | label 1 |
| COC1(C2COc3cc(OCc4ccccc4)ccc3C2=O)C=C2OCOC2=CC1=O (stereo not given) | label 0 |
| COc1c(C)c(OC)c(C(=O)CC(C)C)c(OC)c1C | label 0 |
| Oc1c(Cl)cc(Cl)cc1C=Nc1cc(C(F)(F)F)ccc1N1CCc2ccccc2C1 | label 0 |

Query: recorded result category for CC(C)(CCc1nc2ccccc2[nH]1)C(=O)O in this test
label 0

What do you get for CN(C)CCSc1n[nH]c(=O)[nH]c1=O ?
label 0

What do you get for CCCCCCCCCCCCCCCC(O)S(=O)(=O)O (stereo not given) ?
label 0

What do you get for CC(O)CSCC(C)O (stereo not given) ?
label 0

What do you get for C=CCNC(=S)NNC(=S)NCC=C ?
label 0

What do you get for CC(=O)OC1C=CC2Oc3ccc(C)cc3C1(C)O2 (stereo not given) ?
label 0

What do you get for CC(C)OC1(c2ccccc2)OC(c2ccccc2)=CC1=O (stereo not given) ?
label 0

What do you get for COC(=O)C1(Cc2ccc3c(c2)CCC3)Cc2cc3c(cc2C1)CCC3 ?
label 0

What do you get for O=C(NC1CCCCC1)N(C1CCCCC1)C1CCCCC1 ?
label 0

What do you get for CCCCNc1ccc(Cl)cc1 ?
label 0

* * *

Assay text: NCI Yeast Anticancer Drug Screen. Data for the mlh1 rad18 strain (AID 175)
Condition context: S. cerevisiae mlh1 rad18 strain growth inhibition; at 50.0 µM; active compounds read high
Procedure: Growth inhibition of yeast strains with defined genetic alterations is measured as a screen for potential anti-cancer activity. Selected strains with alterations in DNA damage repair or cell cycle control were exposed to compounds and growth inhibition was measured relative to vehicle treated controls. The strain used in this assay is mlh1 rad18
This is part of a sample that, as a whole, favours compounds with a hit. Of some 79,000 tested, about 15% had one in any assay. The source made the active and inactive calls. Rule as the data show it: active = growth inhibition above about 70%; inactive = the rest.
// values below are reported growth inhibition

Some compounds with recorded growth inhibition:
| Compound | growth inhibition |
| --- | --- |
| COC1C(/C=[N+](\C)[O-])OC2OC(C)(C)OC21 (stereo unspecified) | 12.8% (inactive) |
| CCC1([N+](=O)[O-])CC2C=CC1C2 (stereo unspecified) | -13.2% (inactive) |
| CC1(C#N)N(C(=O)c2ccccc2)c2ccccc2N1C(=O)c1ccccc1 | 24.9% (inactive) |
| COc1cc2c(cc1OC)C(c1ccccc1)ON(C)CC2 (stereo unspecified) | 1.35% (inactive) |
| CCOC(=O)c1c(-c2ccc(OC)cc2)c(C#N)c(=S)n(C2OC(CO)C(O)C(O)C2O)c1C (stereo unspecified) | 10.1% (inactive) |
| CN(C)CCC(C(N)=O)c1ccccc1 (stereo unspecified) | 18.1% (inactive) |
| CCOC(=O)/C=C/CI | 16.2% (inactive) |
| CCOC(C)OCCCI (stereo unspecified) | 13.2% (inactive) |

Query (compound): CC(C)C(/C=C/c1ccc(Br)cc1)=N\NC(N)=O ; field requested: growth inhibition
-18.9% (inactive)

What do you get for COc1ccc(C(=O)O[C@H]2[C@@H]3C=CO[C@@H](OC4OC(CO)C(O)C(O)C4O)[C@@H]3[C@@]3(CO)O[C@@H]23)cc1O (stereo partly specified) ?
38.6% (inactive)

What do you get for Cc1cc(N=[N+]=[N-])c2cc3c(cc2n1)OCO3 ?
14% (inactive)
